# TARGET_OR_SYSTEM: furin, P09958;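 note: purified furin at 1:10 enzyme:substrate in 50 mM HEPES pH 7.5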
# Sequence (P09958 whole entry): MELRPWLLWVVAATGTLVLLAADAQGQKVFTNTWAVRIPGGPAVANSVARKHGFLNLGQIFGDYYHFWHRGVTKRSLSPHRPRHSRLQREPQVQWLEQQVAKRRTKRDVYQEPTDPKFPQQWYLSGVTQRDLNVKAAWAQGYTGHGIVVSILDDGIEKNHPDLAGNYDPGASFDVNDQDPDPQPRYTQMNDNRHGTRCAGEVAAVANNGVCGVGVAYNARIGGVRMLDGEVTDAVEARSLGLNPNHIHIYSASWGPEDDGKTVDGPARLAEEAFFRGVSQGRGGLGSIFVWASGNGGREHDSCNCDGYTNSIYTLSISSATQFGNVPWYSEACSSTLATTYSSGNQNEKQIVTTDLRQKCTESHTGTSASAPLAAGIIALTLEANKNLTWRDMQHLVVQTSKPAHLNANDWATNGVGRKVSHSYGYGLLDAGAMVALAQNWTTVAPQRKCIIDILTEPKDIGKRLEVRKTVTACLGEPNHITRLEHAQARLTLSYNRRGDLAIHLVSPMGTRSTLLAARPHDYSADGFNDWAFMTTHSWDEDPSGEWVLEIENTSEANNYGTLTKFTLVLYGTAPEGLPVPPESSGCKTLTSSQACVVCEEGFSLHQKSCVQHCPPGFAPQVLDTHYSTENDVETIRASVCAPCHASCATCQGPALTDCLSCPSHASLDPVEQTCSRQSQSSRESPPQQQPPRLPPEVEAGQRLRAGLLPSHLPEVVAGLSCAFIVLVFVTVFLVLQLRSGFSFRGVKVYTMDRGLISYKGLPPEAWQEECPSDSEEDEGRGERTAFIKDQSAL
# ASSAY_PROTOCOL: furin cleavage Z-score vs untreated control; higher = more cleavage, active = 3.5 or more, inactive = 1 or less, 8 variable residues between constant flanks
# MEASUREMENT_SETUP: 30 min
This is one part of the list. How many sequences the whole screen found active is unknown.
# furin cleavage Z-score >= 1 gives label 1, anything below gives label 0

A selection of reference data follows.
> print(dat)
               residue.sequence    class
1   CADREVPCHRAGNASASA [HC2431]  label 1
2   CAQVPCHRPSAGNASASA [HC2322]  label 1
3    CAMCAVHPTLAGNASASA [HC599]  label 0
4    CALRTRPRRFAGNASASA [FS-58]  label 1
5  CARRFRPRRFAGNASASA [FS-1072]  label 1

Check the entry CARPRRDSAGAGNASASA [FS-2500] : does furin cleavage Z-score equal or exceed 1?
label 0

Check the entry CARPRRDCVAAGNASASA [FS-2440] : does furin cleavage Z-score equal or exceed 1?
label 1

Check the entry CARQKKAAEKAGNASASA [FS-2584] : does furin cleavage Z-score equal or exceed 1?
label 1

Check the entry CAMHTRCHCGAGNASASA [HC1173] : does furin cleavage Z-score equal or exceed 1?
label 0
